B1: KRT13 (parent)
chain: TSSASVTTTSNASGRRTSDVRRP

Variants of: B1
Assay: protein stability index of a GFP-peptide fusion (GPS, HEK-293T) (PSI 1-6); higher = more stable;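 note: lentivirally expressed fusions sorted by FACS into six bins by GFP to DsRed ratio, PSI derived from sequencing read proportions per bin multiplied by bin number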
Details: c terminus: native
Reported Property: protein stability index
Reply with just the number.

Data request, read-out protein stability index, for S13K
1.94

Returns the measured protein stability index for the input variant. Input: S3D
2.57

Look up protein stability index: R22A
2.49

Recorded protein stability index of S2G , please.
2.56

Would you kindly share the measured protein stability index for S13P ?
2.41

# get_value(readout='protein stability index', item= R16C )
1.27

For the variant shown here, R22W , give the reported protein stability index.
2.04

// protein stability index lookup, key: R21F
5.07

Which protein stability index value is on record for S13E ?
1.7

Would you mind telling me what protein stability index value was observed for V20I ?
4.34

Looking for the measured protein stability index of A4I , can you help?
3.97

Query: protein stability index; subject: G14P
1.88

What measured protein stability index goes with A12L ?
2.53

Query (variant): S3Q ; field requested: protein stability index
2.19

Consider the variant T9H and give its measured protein stability index.
3.88

Fill blank: measured protein stability index of the variant S2P is ____.
3.07

Would you kindly share the measured protein stability index for N11A ?
3.09

For S5K , what is its reported protein stability index?
1.9

So what does the record say about protein stability index for T7D ?
3.4

Item T7Q has what recorded protein stability index?
1.3

For the variant shown here, R15D , give the reported protein stability index.
2.25

Query (variant): R22M ; field requested: protein stability index
3.05
